Molecular target: human MC4R receptor (human, UniProt P32245 1-332)
Sequence (P32245 whole entry): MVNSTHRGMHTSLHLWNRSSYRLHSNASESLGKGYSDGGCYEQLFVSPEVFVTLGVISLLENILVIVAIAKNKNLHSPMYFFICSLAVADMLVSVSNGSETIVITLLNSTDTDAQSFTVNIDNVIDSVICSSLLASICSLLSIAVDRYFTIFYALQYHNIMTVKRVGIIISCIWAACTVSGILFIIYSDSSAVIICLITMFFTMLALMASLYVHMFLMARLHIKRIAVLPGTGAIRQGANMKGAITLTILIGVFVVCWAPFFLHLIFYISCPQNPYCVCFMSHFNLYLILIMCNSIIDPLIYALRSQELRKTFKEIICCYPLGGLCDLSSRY
Assay: cell-based or functional assay
Positions of bridges follow the written chain, without caps; N, C: chain ends. Non-standard residues stand in square brackets, D forms with d. Aib = CC(C)(N)C(=O)O
experimental.readout: cAMP EC50 (nM)
Give just the number in nM; leave the unit off.

binder	result.number
{CH2CO}-[dA]R[dF]RWC-NH2 (thioether N-6; SMILES C[C@H]1NC(=O)CSC[C@@H](C(N)=O)NC(=O)[C@H](Cc2c[nH]c3ccccc23)NC(=O)[C@H](CCCNC(=N)N)NC(=O)[C@@H](Cc2ccccc2)NC(=O)[C@H](CCCNC(=N)N)NC1=O) [CTX-1642]	2.9

Kindly consider the entry below.
q: What value of cAMP EC50 has been reported for the following binder? {CH2CO}-[Aib]R[dF]RFC-NH2 (thioether N-6; SMILES CC1(C)NC(=O)CSC[C@@H](C(N)=O)NC(=O)[C@H](Cc2ccccc2)NC(=O)[C@H](CCCNC(=N)N)NC(=O)[C@@H](Cc2ccccc2)NC(=O)[C@H](CCCNC(=N)N)NC1=O) [CTX-1651]
a: 1190

These data points were gathered from patent US20240391954A1.
